test: chemical genetic growth profiling, strain panel (AID 1159580);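 further: tested at 20 µM; growth read once vehicle control cultures reached saturation at 30 °C; 1 = growth at the plate median or of vehicle wells; lower values mean less growth of the strain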; details: S. cerevisiae deletion strains, growth OD, locus YDR388W, stronger effect = lower value
In all, about 5,500 compounds went through this assay and about 2,000 (36%) were called active. Not shown: some 18% with an inconclusive outcome. The list shows a part of the results.
Catalogue of normalized growth readings, one per entry.
assayMetric: normalized growth

molecule=N[C@H](Cc1ccccc1)C(=O)O assaymetric="normalized growth" observedresult="1.01 (inactive)"
molecule=O=C(Nc1ccccc1)c1ccccc1O assaymetric="normalized growth" observedresult="0.988 (inactive)"
molecule="CCCCCC1C(=O)CCC1CC(=O)O (centres undefined)" assaymetric="normalized growth" observedresult="0.994 (inactive)"
molecule="C=C1C(C2(C)C=CC(=O)C(C)(C)C2CC(=O)OC)CC[C@@]2(C)[C@H](c3ccoc3)OC(=O)C3OC132 (some centres undefined)" assaymetric="normalized growth" observedresult="0.977 (inactive)"
molecule="COc1c2ccoc2nc2c(OC)c(OCC(O)C(C)(C)O)ccc12 (centres undefined)" assaymetric="normalized growth" observedresult="0.997 (inactive)"
molecule="NC(N)=NCCCC(NC(=O)C(N)Cc1ccc(O)cc1)C(=O)O (centres undefined)" assaymetric="normalized growth" observedresult="0.989 (inactive)"
molecule=N[C@@H](Cc1cc(I)c(Oc2cc(I)c(O)c(I)c2)c(I)c1)C(=O)O assaymetric="normalized growth" observedresult="1.09 [resistant] (active)"
molecule=N#C/C(=C\c1cccc(O)c1)C(=O)O assaymetric="normalized growth" observedresult="0.999 (inactive)"
molecule=NC(N)=O assaymetric="normalized growth" observedresult="0.985 (inactive)"
molecule=Cc1cccc(Nc2ccncc2S(=O)(=O)NC(=O)NC(C)C)c1 assaymetric="normalized growth" observedresult="1.02 (inactive)"
molecule=CCC(=O)Nc1ccc(Cl)c(Cl)c1 assaymetric="normalized growth" observedresult="1 (inactive)"
molecule="COc1cc(S(C)=O)ccc1-c1nc2ncccc2[nH]1 (centres undefined)" assaymetric="normalized growth" observedresult="0.996 (inactive)"
molecule="CC1(C)C(O)CC(O)C2(C)C1CC(O)C1(C)C2CCC2(C)C(c3ccoc3)OC(=O)C3OC321 (centres undefined)" assaymetric="normalized growth" observedresult="1.02 (inactive)"
molecule=COc1cc2c(cc1/C=C/C(=O)c1cc(OC)c(OC)cc1OC)OCO2 assaymetric="normalized growth" observedresult="1.02 (inactive)"
molecule=Cc1cc(O)c(C=O)c2c1C(=O)Oc1c(COC(=O)/C=C/C(=O)O)c(O)c(C(=O)O)c(C)c1O2 assaymetric="normalized growth" observedresult="0.992 (inactive)"
molecule=COc1c2ccccc2nc2occc12 assaymetric="normalized growth" observedresult="0.993 (inactive)"
molecule=O=c1cc(-c2cc(O)c(O)c(O)c2)oc2cc(O)cc(O)c12 assaymetric="normalized growth" observedresult="0.996 (inactive)"
molecule=CCCCSP(=O)(SCCCC)SCCCC assaymetric="normalized growth" observedresult="1.01 (inactive)"
molecule="COC(=O)CCC(=O)O[C@H]1CCC2(C)C(CCC3C2C(=O)[C@@H](O)C2(C)C3CC3OC4(CCC(C)CO4)[C@@H](C)C32)C1 (some centres undefined)" assaymetric="normalized growth" observedresult="0.994 (inactive)"
molecule=CN(C)C(=O)Nc1ccc(Cl)c(Cl)c1 assaymetric="normalized growth" observedresult="0.992 (inactive)"
molecule="CC(CCC(=O)O)[C@H]1CCC2C3CC[C@@H]4C[C@H](O)CC[C@]4(C)C3CC[C@@]21C (some centres undefined)" assaymetric="normalized growth" observedresult="1.01 (inactive)"
molecule=COc1cc2c(cc1-c1cc3cc4ccoc4cc3oc1=O)OCO2 assaymetric="normalized growth" observedresult="0.965 (inactive)"
molecule=NC(N)=NCCC[C@@H](NC(=O)[C@@H](N)Cc1ccc(O)cc1)C(=O)O assaymetric="normalized growth" observedresult="1.01 (inactive)"
molecule=COc1c(Cl)ccc(Cl)c1C(=O)O assaymetric="normalized growth" observedresult="1.01 (inactive)"
molecule=Nc1ccncc1 assaymetric="normalized growth" observedresult="0.965 (inactive)"
molecule="Cc1cc(O)c(C=O)c2c1C(=O)Oc1c(C)c(O)c3c(c1O2)C(O)OC3=O (centres undefined)" assaymetric="normalized growth" observedresult="0.98 (inactive)"
molecule=COc1ccc(C(=O)N2CCCC2=O)cc1 assaymetric="normalized growth" observedresult="0.999 (inactive)"
molecule="CC(C)CCCC(C)C1CCC2C3CC[C@H]4CCCC[C@]4(C)C3CC[C@]12C (some centres undefined)" assaymetric="normalized growth" observedresult="0.987 (inactive)"
molecule=Cc1cc(O)c(C)c2c1C(=O)Oc1c(C)c(O)c(C(=O)O)c(C)c1O2 assaymetric="normalized growth" observedresult="0.98 (inactive)"

---

test: chemical genetic growth profiling, strain panel (AID 1159580); conditions: S. cerevisiae deletion strains, growth OD, locus YLR342W, strain FKS1
The campaign covered roughly 5,500 compounds. About 2,000 (36%) were called active. About 18% were inconclusive and are not listed. Cut-off read from the data, not from the text of the source: active = normalized growth mostly below about 0.91 (no sharp cut-off); inconclusive = no clear call, values can overlap the other calls; inactive = mostly above about 0.92. Some of the results follow.
Classes used: active, inactive

compound=O=C(Nc1ccccc1)Nc1ccccc1 assignedlabel=inactive
compound=CC(=O)Nc1ccccc1 assignedlabel=inactive
compound=O=c1cc(-c2ccccc2)oc2cc(O)c(O)c(O)c12 assignedlabel=active
compound="CSc1ccc2c(c1)N(CCC1CCCCN1C)c1ccccc1S2 (stereo not given)" assignedlabel=active
compound=COc1c2ccccc2nc2occc12 assignedlabel=inactive
compound=O=c1cc(-c2ccc(O)cc2)oc2cc(O)cc(O)c12 assignedlabel=inactive
compound=O=c1cc(-c2ccccc2)oc2cccc(O)c12 assignedlabel=inactive
compound=CN(C(=O)CN(CCO)CC(=O)N(C)C(C)(C)Cc1ccccc1)C(C)(C)Cc1ccccc1 assignedlabel=inactive
compound="CC(=O)OCC(=O)[C@@]1(O)[C@H](OC(C)=O)CC2C3CCC4=CC(=O)C=C[C@]4(C)[C@@]3(F)[C@@H](O)C[C@@]21C (stereo not given in full)" assignedlabel=inactive
compound=O=c1cc(-c2cc(O)c(O)c(O)c2)oc2cc(O)cc(O)c12 assignedlabel=inactive
compound=CCCC(C(=O)OCCN(CC)CC)(c1ccccc1)c1ccccc1 assignedlabel=inactive
compound="COc1c2ccoc2nc2c(OC)c(OCC(O)C(C)(C)O)ccc12 (stereo not given)" assignedlabel=inactive
compound="CCN(CC)C(C)CN1c2ccccc2Sc2ccccc21 (stereo not given)" assignedlabel=active
compound=Cc1cc(=O)oc2c(O)c(O)ccc12 assignedlabel=inactive
compound=CCN(CC)CCOC(=O)C(c1ccccc1)c1ccccc1 assignedlabel=inactive
compound=N[C@H](Cc1cc(I)c(Oc2ccc(O)c(I)c2)c(I)c1)C(=O)O assignedlabel=inactive
compound=CNCCCN1c2ccccc2CCc2ccccc21 assignedlabel=inactive
compound=CC(=O)Nc1nnc(S(N)(=O)=O)s1 assignedlabel=inactive
compound=O=c1cc(-c2ccc(O)cc2)oc2cc(O)ccc12 assignedlabel=inactive
compound="CC(CN1c2ccccc2Sc2ccccc21)N(C)C (stereo not given)" assignedlabel=active

---

Catalogue of normalized growth readings, one per entry.
experiment: chemical genetic growth profiling, strain panel (AID 1159580);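 further: tested at 20 µM; growth read once vehicle control cultures reached saturation at 30 °C; 1 = growth at the plate median or of vehicle wells; lower values mean less growth of the strain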; conditions: S. cerevisiae deletion strains, growth OD, locus YBL061C, strain skt5, stronger effect = lower value
The whole screen tested about 5,500 compounds, of which about 2,000 (36%) were called active. Inconclusive results (about 18%) are left out. The list shows a part of the results.
assayMetric: normalized growth

compound="CC(=O)OCC(=O)[C@@]1(O)[C@H](OC(C)=O)CC2C3CCC4=CC(=O)C=C[C@]4(C)[C@@]3(F)[C@@H](O)C[C@@]21C (stereo not given in full)" observedresult=1
compound="C[C@H](CCC(=O)O)[C@H]1CCC2C3C(CC[C@@]21C)[C@@]1(C)CC[C@@H](O)C[C@H]1C[C@H]3O (stereo not given in full)" observedresult=1.02
compound=CCC(=O)Nc1ccc(Cl)c(Cl)c1 observedresult=0.978
compound=S=P(N1CC1)(N1CC1)N1CC1 observedresult=1.01
compound="CCCCCC1C(=O)CCC1CC(=O)O (stereo not given)" observedresult=0.988

---

assay: chemical genetic growth profiling, strain panel (AID 1159580);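 further: tested at 20 µM; growth read once vehicle control cultures reached saturation at 30 °C; 1 = growth at the plate median or of vehicle wells; lower values mean less growth of the strain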; settings: S. cerevisiae deletion strains, growth OD, locus YNL322C, strain KRE1 (second series), stronger effect = lower value
In all, about 5,500 compounds went through this assay and about 2,000 (36%) were called active. Inconclusive results (about 18%) are left out. The list shows a part of the results.
assayMetric: normalized growth

molsmiles=O=c1cc(-c2ccccc2)oc2cccc(O)c12 observedresult="0.996 (inactive)"
molsmiles=C=C[C@H]1CN2CC[C@H]1C[C@@H]2[C@H](O)c1ccnc2ccccc12 observedresult="0.975 (inactive)"
molsmiles=NC(N)=O observedresult="1.01 (inactive)"
molsmiles=N[C@H](Cc1cc(I)c(Oc2ccc(O)c(I)c2)c(I)c1)C(=O)O observedresult="1.02 (inactive)"

---

experiment: chemical genetic growth profiling, strain panel (AID 1159580);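 further: tested at 20 µM; growth read once vehicle control cultures reached saturation at 30 °C; 1 = growth at the plate median or of vehicle wells; lower values mean less growth of the strain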; conditions: S. cerevisiae deletion strains, growth OD, locus YER155C, strain BEM2 (second series), stronger effect = lower value
The campaign covered roughly 5,500 compounds. About 2,000 (36%) were called active. About 18% were inconclusive and are not listed. The list shows a part of the results.
assayMetric: normalized growth

molecule=Nc1ccncc1 assaymetric="normalized growth" observedresult="0.947 (inactive)"
molecule="CN(C)CCOC(=O)C(c1ccccc1)C1(O)CCCC1 (centres undefined)" assaymetric="normalized growth" observedresult="1 (inactive)"
molecule=O=C(O)CCC(=O)Nc1ccc(S(=O)(=O)Nc2nccs2)cc1 assaymetric="normalized growth" observedresult="0.981 (inactive)"
molecule="CC(CCC(=O)O)[C@H]1CCC2C3C(C[C@H](O)[C@@]21C)[C@@]1(C)CC[C@@H](O)C[C@H]1C[C@H]3O (some centres undefined)" assaymetric="normalized growth" observedresult="1.02 (inactive)"
